These measurements were taken from patent US20260184710A1.

Listed below: DC50 values for each entry.
Biological target: Cbl-b (Homo sapiens)
Construct: Cbl-b-HiBit KI Jurkat Cells were purchased from Promega; host or cells: Cbl-b-HiBiT knock-in Jurkat cells
Sequence (Q13191 whole entry): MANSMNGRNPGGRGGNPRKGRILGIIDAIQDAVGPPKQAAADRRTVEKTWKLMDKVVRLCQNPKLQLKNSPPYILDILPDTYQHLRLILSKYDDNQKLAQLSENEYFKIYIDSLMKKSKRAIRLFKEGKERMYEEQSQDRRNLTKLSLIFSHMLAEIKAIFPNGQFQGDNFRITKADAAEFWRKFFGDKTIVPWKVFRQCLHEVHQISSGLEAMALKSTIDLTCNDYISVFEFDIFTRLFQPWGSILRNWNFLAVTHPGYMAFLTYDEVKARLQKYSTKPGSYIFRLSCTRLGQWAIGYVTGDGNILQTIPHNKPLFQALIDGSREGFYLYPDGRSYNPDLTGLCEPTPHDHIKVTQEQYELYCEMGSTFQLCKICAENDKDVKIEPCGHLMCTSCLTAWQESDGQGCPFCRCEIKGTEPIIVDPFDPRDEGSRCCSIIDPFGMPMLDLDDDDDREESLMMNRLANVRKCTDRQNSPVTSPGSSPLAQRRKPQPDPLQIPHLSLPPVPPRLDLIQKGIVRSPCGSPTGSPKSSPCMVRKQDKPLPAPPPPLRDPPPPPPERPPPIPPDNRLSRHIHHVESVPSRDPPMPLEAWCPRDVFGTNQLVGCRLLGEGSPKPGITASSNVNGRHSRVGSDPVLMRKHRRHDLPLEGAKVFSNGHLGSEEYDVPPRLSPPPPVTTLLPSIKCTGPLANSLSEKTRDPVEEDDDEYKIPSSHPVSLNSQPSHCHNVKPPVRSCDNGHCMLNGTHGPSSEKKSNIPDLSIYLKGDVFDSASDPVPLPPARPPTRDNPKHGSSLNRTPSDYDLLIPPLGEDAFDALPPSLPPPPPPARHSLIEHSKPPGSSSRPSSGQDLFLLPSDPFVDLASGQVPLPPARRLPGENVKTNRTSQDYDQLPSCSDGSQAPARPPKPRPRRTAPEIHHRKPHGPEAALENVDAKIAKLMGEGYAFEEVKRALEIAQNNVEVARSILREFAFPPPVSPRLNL
Assay: Cbl-b Degradation Method B (Nano-Glo HiBiT lytic detection)
Type: cell-based
Settings: Cbl-b-HiBit KI Jurkat Cells, incubated at least 6-24 hours; half maximal degradation; read-out: Cbl-b Degredation Method B IC50
MEASURED ENDPOINT: DC50

MOLECULE: Cn1cnnc1CC1(c2cccc(N3Cc4c(cc(CN5CCCC(CN6CCN(c7ccc8c(c7)C(=O)N(C7CCC(=O)NC7=O)C8=O)CC6)C5)cc4C(F)(F)F)C3=O)c2)COC1 (stereo not shown)
REPORTED RESULT: > 500 nM

MOLECULE: Cc1cc(N2C[C@@H]3C[C@H]2CN3CC2CCC3(CC2)CN(c2cc4c(c(C(F)(F)F)c2)CN(c2cccc([C@]5(Cc6nncn6C)C[C@@H](C#N)C5)c2)C4=O)C3)c(F)c2c1C(=O)N(C1CCC(=O)NC1=O)C2 (stereo partly shown)
REPORTED RESULT: 5 to 50 nM

MOLECULE: Cn1cnnc1CC1(c2cccc(N3Cc4c(cc(CN5CCC(CN6CCN(c7ccc8c(c7)C(=O)N(C7CCC(=O)NC7=O)C8=O)CC6)C5)cc4C(F)(F)F)C3=O)c2)COC1 (stereo not shown)
REPORTED RESULT: > 500 nM

MOLECULE: C[C@H]1CN(Cc2cc3c(c(C(F)(F)F)c2)CN(c2cccc(C4(Cc5nncn5C)COC4)c2)C3=O)CCN1CC1CCC(OC2CCN(c3ccc4c(c3F)CN(C3CCC(=O)NC3=O)C4=O)CC2)CC1 (stereo partly shown)
REPORTED RESULT: < 5 nM

MOLECULE: Cn1cnnc1C[C@]1(c2cccc(N3Cc4c(cc(CN5CCN(C[C@H]6CC[C@H](OC7CCN(c8ccc(F)c(C(=O)NC9CCC(=O)NC9=O)c8)CC7)CC6)CC5)cc4C(F)(F)F)C3=O)c2)C[C@H](C#N)C1 (stereo partly shown)
REPORTED RESULT: > 500 nM

MOLECULE: Cn1cnnc1CC1(c2cccc(N3Cc4c(cc(CN5CCC(N6CC7(CN(c8ccc9c(c8)C(=O)N(C8CCC(=O)NC8=O)C9=O)C7)C6)CC5)cc4C(F)(F)F)C3=O)c2)COC1 (stereo not shown)
REPORTED RESULT: > 500 nM

MOLECULE: COc1c(N2CCC(CN3CCC4(CC3)CN(c3cc5c(c(C(F)(F)F)c3)CN(c3cccc(C6(Cc7nncn7C)COC6)c3)C5=O)C4)CC2)ccc2c1CN(C1CCC(=O)NC1=O)C2=O (stereo not shown)
REPORTED RESULT: < 5 nM

MOLECULE: C[C@@H]1CN(Cc2cc3c(c(C(F)(F)F)c2)CN(c2cccc(C4(Cc5nncn5C)COC4)c2)C3=O)CCN1C[C@H]1CC[C@H](OC2CCN(c3ccc4c(c3F)CN(C3CCC(=O)NC3=O)C4=O)CC2)CC1 (stereo partly shown)
REPORTED RESULT: < 5 nM

MOLECULE: Cn1cnnc1C[C@]1(c2cccc(N3Cc4c(cc(N5CC6(CCN(CC7(F)CCN(c8ccc9c(c8)C(=O)N(C8CCC(=O)NC8=O)C9=O)CC7)CC6)C5)cc4C(F)(F)F)C3=O)c2)C[C@H](C#N)C1 (stereo partly shown)
REPORTED RESULT: 5 to 50 nM

MOLECULE: Cn1cnnc1CC1(c2cccc(N3Cc4c(cc(N5CCC(C6CCN(c7ccc8c(c7)C(=O)N(C7CCC(=O)NC7=O)C8=O)CC6)CC5)cc4C(F)(F)F)C3=O)c2)COC1 (stereo not shown)
REPORTED RESULT: > 500 nM
